For each of the compounds below, state its z-score.
# test: A549 lung cancer cell viability effects, profiling panel, resazurin fluorescence, 24 h, PK04 Diversity Set (AID 1171); note: test concentration not given here
# run conditions: higher = more signal, called active from +8 up or from −8 down
Calls of active or inactive are those of the source.

Please give z-score, item by item, for the list that follows.
1. C=CCOC(=O)[C@@H]1[C@H]2C(=O)O[C@H](c3ccccc3)[C@H](c3ccccc3)N2[C@H](c2ccc(OCCOC(=O)[C@H]3C[C@H]4C(=O)N5CCC[C@H]5C(=O)N4[C@H]3c3ccc(O)cc3)cc2)[C@@]12C(=O)Nc1ccccc12
2. CC[C@H]1C2=C3C(CC[C@H]4C(OC)OC[C@](C)([C@@H]34)N(C(=O)OC(C)(C)C)C2)C(CO)C1CO (stereo partly specified)
3. C#CCCCON=C1C[C@@H](O)[C@@H](O)[C@@H]2[C@@H]3C(=O)N(Cc4ccc5c(c4)OCO5)C(=O)[C@@H]3CC[C@H]12
4. CCCCCCc1nc(C2CC2)c(C)c2c1[Si](C(C)C)(C(C)C)OC2
5. O=C1O[C@H](c2ccccc2)[C@H](c2ccccc2)N2[C@H]1[C@@H](C(=O)NC[C@H](O)c1ccccc1)[C@]1(C(=O)Nc3ccc(C#CC4=CCCCC4)cc31)[C@H]2c1ccc(OCCO)cc1

-0.0653 (inactive)
-1.28 (inactive)
0.495 (inactive)
-0.207 (inactive)
-0.527 (inactive)

Look up z-score: CC(C)(C)OC(=O)CC[C@]1(C(=O)NCCN2CCOCC2)N=C(c2ccc(OCCCO)cc2)O[C@H]1c1ccccc1CN=[N+]=[N-]
0.619 (inactive)

Just for reference, PubChem BioAssay is where these values come from.
